biological target: MYLK4 (Homo sapiens); assay: NanoBRET assay
Sequence (Q86YV6 whole entry): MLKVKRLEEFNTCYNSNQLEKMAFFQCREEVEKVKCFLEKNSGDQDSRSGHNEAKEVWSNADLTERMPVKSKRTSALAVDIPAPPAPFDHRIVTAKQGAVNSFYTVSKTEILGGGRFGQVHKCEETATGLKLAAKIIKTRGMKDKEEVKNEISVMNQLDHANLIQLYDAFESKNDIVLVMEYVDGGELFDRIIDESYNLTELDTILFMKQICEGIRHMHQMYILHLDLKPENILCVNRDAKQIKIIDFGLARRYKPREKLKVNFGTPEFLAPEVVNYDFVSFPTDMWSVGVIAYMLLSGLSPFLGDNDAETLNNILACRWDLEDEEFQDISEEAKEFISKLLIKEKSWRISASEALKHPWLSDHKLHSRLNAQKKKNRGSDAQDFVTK
measured attribute: IC50 (nM)
Express the result in nM but write the number alone.

Record CN(C)CC#Cc1ccc2[nH]c3c(c2c1)-c1nc(N)ncc1CCC3 , field IC50: 265

###

test system: SARS-CoV-2-nLuc; experiment: microbe, parasite or virus in culture; assay type: cell-based; conditions: Severe acute respiratory syndrome coronavirus 2, A549-ACE2, 46 h, read-out: SARS-CoV-2 replication IC50
measured attribute: pIC50
Interpret pIC50 as the negative base-10 log of the concentration measured in mol/L.

pIC50 measured on CCC(O)(C#Cc1ccc2[nH]c3c(c2c1)-c1nc(N)ncc1CCC3)CC [compound 26] = 7.62
